- Tested on: RXF 393 renal
- assay.details: NCI tumour cell line growth inhibition, 48 h
quantity.kind: TGI

1. O=c1cc(CNC2CC3CCC2C3)[nH]c(=O)[nH]1 (stereo not given) :: > 100 µM
2. COc1ccc(OC)c(Cc2cnc3nc(N)nc(N)c3c2C)c1 :: 21.9 µM
3. COc1ccc(S(=O)(=O)N2CCNCC2)cc1OC :: > 100 µM
4. O=c1[nH]c(=S)[nH]c(-c2ccccc2)c1Cc1c(O)ccc2ccccc12 :: 95.1 µM
5. Cc1cccc(CNc2ncnc3[nH]ncc23)c1 :: > 100 µM
6. C/C(N)=N/OCc1nc(C)no1 :: > 100 µM
7. CC(C)(C)c1cc(C(=O)O)c2c(c1)C(=O)OC2(c1ccccc1)c1ccccc1C(=O)O (stereo not given) :: > 100 µM
8. c1ccc2c(CNCCN3CCNCC3)c3ccccc3c(CNCCN3CCNCC3)c2c1 :: 81.9 µM
9. Fc1ccc2nc(-c3nc(-c4ccccc4)n4ccccc34)[nH]c2c1 :: 10.2 µM
10. c1ccc(C2CCCCC2)c(OCCCCCN2CCNCC2)c1 :: 4.02 µM
11. C[C@H]1C[C@H]2[C@@H]3CCC4=CC(=O)C=C[C@]4(C)C3=CC[C@]2(C)[C@@]1(O)C(=O)CO :: > 100 µM
12. c1ccc(CN2COc3c(ccc4c5c(ccc34)CN(Cc3ccccc3)CO5)C2)cc1 :: > 100 µM
13. Cn1c(C(=O)c2cccc3ccccc23)nc2ccccc21 :: > 100 µM
14. c1ccc2cc3c(cc2c1)OP1(Oc2cccc4cccnc24)(O3)Oc2cc3ccccc3cc2O1 :: > 100 µM
15. N#Cc1c(NC(=O)c2ccccc2F)sc2c1CCCC2 :: > 25 µM
16. CS(=O)(=O)C1(Br)S(=O)(=O)OCCOS1(=O)=O :: > 100 µM
17. Cc1nnc(N/N=C(/C(=O)C(C#N)c2ccc(Cl)cc2)C(C#N)c2ccc(Cl)cc2)n1N (stereo not given) :: 31.6 µM
18. CC1CCC2C(CN(CC3=C(C(F)(F)F)OC4OC5(C)CCC6C(C)CCC3C46OO5)CC3=C(C(F)(F)F)OC4OC5(C)CCC6C(C)CCC3C46OO5)=C(C(F)(F)F)OC3OC4(C)CCC1C32OO4 (stereo not given) :: 22.4 µM
19. N#Cc1c(-c2ccccc2)cc(-c2ccccc2)n(C2OCC(O)C(O)C2O)c1=S (stereo not given) :: 35.6 µM
20. COc1cc(-c2cc(=O)c3ccccc3[nH]2)cc(OC)c1OC :: > 75 µM
21. Nc1n[nH]c(CCCCCCCc2nc(N)n[nH]2)n1 :: > 100 µM
22. CN(C)CC(/C(Cc1ccccc1)=N\NC(=S)NN)c1ccccc1 (stereo not given) :: > 100 µM
23. O=C(c1cc(Cc2n[nH]c(=O)c3ccccc23)ccc1F)N1CCN(C(=O)C2CC2)CC1 :: > 100 µM
24. CSC1=Nc2c(c(C)c(-c3ccccc3)n2COC(CO)CO)C2=NC(=O)CN12 :: > 100 µM
25. COc1ccc(COc2cc3oc(=O)c4cc(C(C)O)ccc4c3cc2OC)cc1 (stereo not given) :: 15.6 µM
26. Nc1[nH]c(=O)[nH]c(=O)c1Cc1cccc(Cl)c1 :: > 100 µM
27. O=c1n(-c2ccccc2)c(=O)n2c(-c3ccccc3)c(-c3ccccc3)n12 :: > 100 µM
28. CC1CC(N2CCOCC2)=Nc2ccccc2N1Cc1ccccc1 (stereo not given) :: 63.4 µM
29. COc1ccc(NC/C=C/C(=C/COC(C)=O)OC(C)=O)cc1 :: 3.04 µM
30. CCN1C[C@]2(C)CC[C@H](OC)C34C5C[C@@H]6[C@@H](OC)C[C@@](OC)(C5[C@H]6OCc5ccccc5)C(C13)[C@H](OC(C)=O)[C@@H]42 (stereo not given in full) :: > 100 µM
31. O=C1C=C(C2=C(C3=CC(=O)c4ccccc4C3=O)C(=O)c3ccccc3C2=O)C(=O)c2ccccc21 :: 14.5 µM
32. CC(C)=CCC/C(C)=C/CCC1(C)C=Cc2c(c3ccccc3oc2=O)O1 (stereo not given) :: 27.8 µM
33. COC(=O)CCC(NC(=S)N/N=C(\C)c1cnccn1)C(=O)OC (stereo not given) :: > 100 µM
34. c1n[nH]cc1C12C3C4C5C3C1C5C42 (stereo not given) :: > 100 µM
35. CC(=O)OCC(CC[CH2][Sn]([Cl])([Cl])[c]1ccccc1)OC(C)=O (stereo not given) :: 34.2 µM
36. COc1cc(-c2ncn(/C=C\c3nnco3)n2)cc(C(F)(F)F)c1 :: 0.198 µM
37. CC1=NNC(=S)NCCCN2CCN(CCCNC(=S)NN=C(C)C=NNC(=S)NCCCN3CCN(CCCNC(=S)NN=C1)CC3)CC2 :: > 100 µM
38. CC(=O)N(CC(=O)C(=O)NNc1ccoc1)c1ccc(Cl)cc1 :: > 100 µM
39. CC(=O)O[C@@H]1[C@H]2[C@@H](OC(=O)c3ccccc3)[C@@H](C)C[C@]2(O)[C@H](OC(C)=O)[C@@]2(C)[C@@H]3C[C@@](C)(OC(C)=O)C[C@@H](OC(C)=O)[C@@]3(OC(C)=O)C[C@@]12C :: > 10 µM
40. N#C/C(=C\c1cc2ccc(N3CCC3)cc2oc1=O)C(=O)N(CC(=O)O)CC(=O)O :: > 100 µM
